TESTED SYSTEM: PD-1/PD-L1 (Homo sapiens (Human))
EXPERIMENTAL DETAILS: PD-1/PD-L1 biochemical protein-protein interaction assay (ALPHA)
CONDITION DETAILS: 0.3 nM His tagged PD-L1, 2.5 nM biotinylated Fc-PD-1, 60 minutes at 25° C., read-out: IC50 PD-L1-PD1
OBSERVABLE: pIC50
// scale note: pIC50 = -log10(conc_M); give the bare number

Recorded pIC50 for CNc1nc(-c2cccc(-c3cccc(-c4cnc(CNC[C@@H]5CCC(=O)N5)c(OC)n4)c3Cl)c2Cl)cnc1CNC[C@@H]1CCC(=O)N1 [compound 63] , please?
8.52

Recorded pIC50 for COc1nc(-c2cccc(-c3cccc(-c4cnc([C@H](C)N)c(OC)n4)c3Cl)c2Cl)cnc1[C@H](C)N [compound 385] , please?
9.53

Recorded pIC50 for COc1nc(-c2cccc(-c3cccc(-c4cnc(CN5CC(O)C5)c(OC)n4)c3Cl)c2Cl)cnc1CN1CC(O)C1 [compound 131] , please?
9.51

###

TESTED SYSTEM: PD-1/PD-L1 (Homo sapiens (Human))
EXPERIMENTAL DETAILS: PD-1/PD-L1 biochemical protein-protein interaction assay (ALPHA)
CONDITION DETAILS: 0.3 nM His tagged PD-L1, 2.5 nM biotinylated Fc-PD-1, 60 minutes at 25° C., read-out: IC50 PD-L1-PD1
Kindly supply the reported IC50 values for the records listed here.
Output spec: scalar in nM, unitless text.

Recorded IC50 for COc1nc(-c2cccc(-c3cccc(-c4cnc(CN5C[C@@H]6CCC[C@]6(CO)C5)c(OC)n4)c3Cl)c2Cl)cnc1CNC[C@@H]1CCC(=O)N1 , please?
0.331

Recorded IC50 for COCC1(CO)CCN(Cc2ncc(-c3cccc(-c4cccc(-c5cnc(CN6CCC(CO)(COC)C6)c(OC)n5)c4Cl)c3Cl)nc2OC)C1 (stereo not drawn) , please?
0.157

Recorded IC50 for COc1nc(-c2cccc(-c3cccc(-c4cnc(CNC[C@@H]5CCC(=O)N5)c(OC)n4)c3Cl)c2Cl)ccc1CN[C@H]1CNC(=O)C1 , please?
0.233

Recorded IC50 for COc1nc(-c2cccc(-c3cccc(-c4cnc(CN5CCC6(CNC(=O)C6)C5)c(OC)n4)c3Cl)c2Cl)cnc1CNC[C@H]1CCC(=O)N1 (stereo partly drawn) , please?
0.133

Recorded IC50 for COc1nc(-c2cccc(-c3cccc(-c4cnc(CN5CC(C(C)(C)O)C5)c(OC)n4)c3Cl)c2Cl)cnc1CN1CC(C(C)(C)O)C1 , please?
0.064

Recorded IC50 for COc1nc(-c2cccc(-c3cccc(-c4cnc(C5=NCCN5)c(OC)n4)c3Cl)c2Cl)ccc1CN , please?
0.19

###

TESTED SYSTEM: PD-1/PD-L1 (Homo sapiens (Human), UniProt Q9NZQ7)
Sequence (Q9NZQ7 19-238): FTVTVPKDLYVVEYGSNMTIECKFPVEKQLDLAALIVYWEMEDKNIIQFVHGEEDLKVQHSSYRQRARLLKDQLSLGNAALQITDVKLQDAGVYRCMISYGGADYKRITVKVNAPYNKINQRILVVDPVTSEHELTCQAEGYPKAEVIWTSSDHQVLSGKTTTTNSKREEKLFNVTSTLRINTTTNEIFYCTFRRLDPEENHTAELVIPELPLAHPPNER
EXPERIMENTAL DETAILS: PD-1/PD-L1 biochemical protein-protein interaction assay (ALPHA)
CONDITION DETAILS: 0.3 nM His tagged PD-L1, 2.5 nM biotinylated Fc-PD-1, 60 minutes at 25° C., read-out: IC50 PD-L1-PD1
OBSERVABLE: pIC50
// scale note: pIC50 = -log10(conc_M); give the bare number

Recorded pIC50 for COc1nc(-c2cccc(-c3cccc(-c4cnc(CNCC5CCNC5=O)c(OC)n4)c3Cl)c2Cl)cnc1CNCC1CCNC1=O (stereo not shown) , please?
10.19

Recorded pIC50 for COc1nc(-c2cccc(-c3cccc(-c4cnc(CN5CC[C@@H](OC)C5)c(OC)n4)c3Cl)c2Cl)cnc1CNC[C@@H]1CCC(=O)N1 , please?
9.87

Recorded pIC50 for COc1nc(-c2cccc(-c3cccc(-c4cnc(CN5CC6(CCS6(=O)=O)C5)c(OC)n4)c3Cl)c2Cl)cnc1CNC[C@@H]1CCC(=O)N1 , please?
9.60

Recorded pIC50 for COc1nc(-c2cccc(-c3cccc(-c4cnc(CN5CC(N6CCOCC6)C5)c(OC)n4)c3Cl)c2Cl)cnc1CNC[C@@H]1CCC(=O)N1 , please?
9.55

Recorded pIC50 for COc1nc(-c2cccc(-c3cccc(-c4cnc5c(CN6CC7(CCC(=O)N7)C6)cn(C)c5n4)c3Cl)c2Cl)cnc1CN1CC2(CCC(=O)N2)C1 , please?
9.74

Recorded pIC50 for COc1nc(-c2cccc(-c3cccc(-c4cnc(CN5CC(C)(CO)C5)c(OC)n4)c3Cl)c2Cl)cnc1CNC[C@@H]1CCC(=O)N1 , please?
9.96

Recorded pIC50 for COc1nc(-c2cccc(-c3cccc(-c4cnc(CNC[C@@H]5CCC(=O)N5)c(OC)n4)c3Cl)c2Cl)ccc1CN1CCC(C)(O)CC1 , please?
9.79

Recorded pIC50 for COc1nc(-c2cccc(-c3cccc(-c4cnc(CN[C@H]5CNC(=O)C5)c(OC)n4)c3Cl)c2Cl)cnc1CNC[C@H]1CCC(=O)N1 , please?
9.88

Recorded pIC50 for COc1nc(-c2cccc(-c3cccc(-c4cnc(CNC[C@@H]5CCC(=O)N5)c(OC)n4)c3Cl)c2Cl)cnc1CNCC1CCCCO1 (stereo partly shown) , please?
9.59

Recorded pIC50 for COC[C@@H]1CCCN1Cc1ncc(-c2cccc(-c3cccc(-c4cnc(CNC[C@@H]5CCC(=O)N5)c(OC)n4)c3Cl)c2Cl)nc1OC , please?
9.30

Recorded pIC50 for COc1nc(-c2cccc(-c3cccc(-c4cnc(CNC[C@@H]5CCC(=O)N5)c(OC)n4)c3Cl)c2Cl)cnc1CNCCO , please?
9.74

Recorded pIC50 for COc1nc(-c2cccc(-c3cccc(-c4cnc(CNC[C@@H]5CCC(=O)N5)c(OC)n4)c3Cl)c2Cl)cnc1CNCCNC(C)=O , please?
9.89

Recorded pIC50 for OC1CN(Cc2ncc(-c3cccc(-c4cccc(-c5cnc(CN6CC(O)C6)c(N6CCC6)n5)c4Cl)c3Cl)nc2N2CCC2)C1 , please?
9.41
